Origin of values: patent US20260226154A1

Target: T1, PACAP38 (human, not fully specified)
T1 construct: The background says natural PACAP is alpha-amidated
T1 peptide: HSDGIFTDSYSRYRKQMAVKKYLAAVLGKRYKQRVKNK
Assay: SPR (Biacore), 37 C, antibody captured via anti-human Fc, peptide analyte
// reported koff for each item listed
Provide a numeric answer, followed by its unit.

604C (antibody, V domains shown) VH: EVQLVQSGAEVKKPGSSVKVSCKASGGTFSDSYMHWVRQAPGQGLEWMGLIYPIFADTRYAQKFQGRVTITADESTSTAYMELSSLRSEDTAVYYCAIDQDGSFAYWGQGTLVTVSS VL: DIVMTQSPDSLAVSLGERATINCKSSQSLLDSDGKTYLNWLQQKPGQPPKRLIYWASTRESGVPDRFSGSGSGTDFTLTISSLQAEDVAVYYCWQGTWFDLTFGGGTKVEIK : 0.000319 s⁻¹

Note: attention shifts to another entry.
Lab note: measured koff of 609C (antibody, V domains shown) VH: EVQLVQSGAEVKKPGSSVKVSCKASGGTFSDLYMHWVRQAPGQGLEWMGLIYPIFADTRYAQKFQGRVTITADESTSTAYMELSSLRSEDTAVYYCAIDQDGSFAYWGQGTLVTVSS VL: DIVMTQSPDSLAVSLGERATINCKSSQSLLDADGKTYLNWLQQKPGQPPKRLIYWASTRESGVPDRFSGSGSGTDFTLTISSLQAEDVAVYYCWQGTWFDLTFGGGTKVEIKR was 0.00118 s⁻¹
